measurement.protocol: chemical genetic growth profiling, strain panel (AID 1159580);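 also: tested at 20 µM; growth read once vehicle control cultures reached saturation at 30 °C; lower values mean less growth of the strain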
condition.set: S. cerevisiae deletion strains, growth OD, locus YKL085W, strain MDH1
Among all 5,500 compounds or so, about 2,000 (36%) were called active. Inconclusive results (about 18%) are left out. Rule as the data show it: active = normalized growth mostly below about 0.91 (no sharp cut-off); inconclusive = no clear call, values can overlap the other calls; inactive = mostly above about 0.92. This is one part of the list.
Log the outcome using a class from active, inactive

q: Short answer needed: outcome of this test for CC(=O)N[C@@H](Cc1c[nH]c2ccccc12)C(N)=O ?
a: inactive

q: Short answer needed: outcome of this test for COc1c(C)c2c(c(C)c1Cl)Oc1c(Cl)c(OC)c(Cl)c(C)c1C(=O)O2 ?
a: inactive

q: Short answer needed: outcome of this test for C=C(C)C1(O)OC(=O)C=C1OC (stereo not given) ?
a: inactive

q: Short answer needed: outcome of this test for COC(=O)c1c(OC)cc2c(c1C)Oc1c(Cl)c(OC(C)=O)c(Cl)c(C)c1C(=O)O2 ?
a: inactive

q: Short answer needed: outcome of this test for CC(=O)Oc1c(Cl)c(C)c2c(c1Cl)OC(=O)c1c(C)c(Cl)c(OC(C)=O)c(Cl)c1O2 ?
a: active

---

measurement.protocol: chemical genetic growth profiling, strain panel (AID 1159580);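 also: tested at 20 µM; growth read once vehicle control cultures reached saturation at 30 °C; lower values mean less growth of the strain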
condition.set: S. cerevisiae deletion strains, growth OD, locus YNL006W, strain LST8, hits give low values
In all, about 5,500 compounds went through this assay and about 2,000 (36%) were called active. Inconclusive results (about 18%) are left out. Some of the results follow.
// assign criterion met if normalized growth falls strictly below 0.9, else criterion not met (ties count as criterion not met)

Some solved entries appear below for comparison.
INSERT INTO measurements (input_smiles, group) VALUES
  ('CCOC(=O)c1ccc(Cl)c(N=Cc2cc(Cl)cc(Cl)c2O)c1', 'criterion not met'),
  ('CC(=O)c1ccc(Cl)c(N=Cc2cc(Br)cc(Br)c2O)c1', 'criterion met'),
  ('Cc1cc(/C(N)=N\OC(=O)C(C)(C)C)cc(/C(N)=N\OC(=O)C(C)(C)C)c1', 'criterion not met');

q: Is 0.9 strictly greater than the molecule's reported normalized growth? molecule: Brc1ccc(-c2csc(-c3ccncc3)n2)cc1
a: criterion not met

q: Is 0.9 strictly greater than the molecule's reported normalized growth? molecule: CC(=O)c1ccc(Cl)c(N=Cc2cc(Cl)cc(Cl)c2O)c1
a: criterion not met

---

measurement.protocol: chemical genetic growth profiling, strain panel (AID 1159580);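 also: tested at 20 µM; growth read once vehicle control cultures reached saturation at 30 °C; lower values mean less growth of the strain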
condition.set: S. cerevisiae deletion strains, growth OD, locus YNL322C, strain KRE1
In all, about 5,500 compounds went through this assay and about 2,000 (36%) were called active. Not shown: some 18% with an inconclusive outcome. Cut-off read from the data, not from the text of the source: active = normalized growth mostly below about 0.91 (no sharp cut-off); inconclusive = no clear call, values can overlap the other calls; inactive = mostly above about 0.92. The list shows a part of the results.
Log the outcome using a class from active, inactive

INSERT INTO assay_data (compound, group) VALUES
  ('CC1=CC(=O)c2ccccc2C1=O', 'active'),
  ('Cc1cc(=O)[nH]c(=S)[nH]1', 'inactive'),
  ('COC(OC)c1cc(=O)[nH]c(=S)[nH]1', 'inactive'),
  ('COC(=O)c1c(C)c2c(c(C)c1OC)OC(=O)c1c(C)c(Cl)c(OC)c(Cl)c1O2', 'inactive'),
  ('COC(=O)c1c(OC)cc2c(c1C)Oc1c(Cl)c(O)c(Cl)c(C)c1C(=O)O2', 'inactive'),
  ('COC(=O)C/C(N)=C(\C#N)C(=O)OC', 'inactive'),
  ('CCCc1cc(=O)[nH]c(=S)[nH]1', 'inactive'),
  ('COc1cc(CC(C)N)c(OC)cc1I (stereo not given)', 'inactive');

q: Short answer needed: outcome of this test for COc1c(C)c2c(c(C)c1Cl)Oc1c(Cl)c(OC)c(Cl)c(C)c1C(=O)O2 ?
a: inactive

q: Short answer needed: outcome of this test for CO[C@H]1CC(O[C@@H]2/C(C)=C/C[C@@H]3C[C@@H](C[C@]4(CC[C@H](C)[C@@H](C5CCCCC5)O4)O3)OC(=O)[C@@H]3C=C(C)/C(=N\O)[C@H]4OC/C(=C\C=C\[C@@H]2C)[C@]43O)O[C@@H](C)C1O (stereo not given in full) ?
a: inactive

meta.source: PubChem BioAssay AID1159580
